TESTED TARGET: T1, His-tagged cynomolgus monkey TIGIT (Acro Biosystems #TIT-05223) (cynomolgus monkey, UniProt A0A7N9I9V4 89-209)
T1 construct: Bought protein; also called cyno TIGIT; cynomolgus TIGIT; not shown: His tag
T1 sequence (A0A7N9I9V4 entry or part of it): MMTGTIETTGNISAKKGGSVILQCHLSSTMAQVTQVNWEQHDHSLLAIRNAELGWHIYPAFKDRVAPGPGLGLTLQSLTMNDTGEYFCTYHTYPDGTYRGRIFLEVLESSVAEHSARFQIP
PROCEDURE DETAILS: SPR (Carterra LSA), scFv-Fc captured, His-TIGIT analyte; repeat
MEASUREMENT KIND: Kd (nM)
Answers are plain numbers, in nM.

Check out these entries, answers already filled in.
{"columns": ["BINDER", "Kd / nM"],
 "data": [
  ["43645p1.E3 (scFv, V domains shown) VH: EVQLLESGGGLVQPGGSLRLSCAASGFTFSSYAMSWVRQAPGKGLEWVSAIYFDGSIYDADSVKGRFTISRDNSKNTLYLQMNSLRDEDTAVYYCAKSHTVLQYGMDVWGQGTTVTVSS VL: QSVLTQPPSASGTPGQRVTISCSGVTSNIRNSYVSWYQQLPGTAPKLLIYGNDQRPSGVPDRFSGSKSGTSASLAISGLQSEDEADYYCGTWDNTLNAWVFGGGTKLTVL", 5.5],
  ["43586p2.A03 (scFv, V domains shown) VH: EVQLLESGGGLVQPGGSLRLSCAASGFTFTSYAMSWVRQAPGKGLEWVAGISYIGRNEYYADSVKGRLTISRDNSKNTLYLQMNNLRAEDTAIYYCAKHLTGGTTDYYYYGMDVWGQGTTVTVSS VL: QSVLTQPPSASGTPGQRVTISCSGSTSNIGTSRYVHWYQQLPGTAPKLLIYFDSQRPSGVPDRFSASKSGTSASLAISGLQSEDEADYYCATWDDSLSAWVFGGGTKLTVL", 33],
  ["43645p1.F11 (scFv, V domains shown) VH: EVQLLESGGGLVQPGGSLRLSCAASGFTFSSYWMSWVRQAPGKGLEWVSGIHISDSTYYADSVKGRFTISRDNSKNTLYLQMNSLRAEDTAVYYCAKGHTVLQYGMDVWGQGTTVTVSS VL: QSGLTQPPSASGTPGQRVTISCSGDISNTRNNYVSWYQQLPGTAPKLLIYRNSQRPSGVPDRFSGSKSATSASLAISGLQSEDEADYYCGTWDNTLNAWVFGGGTKLTVL", 16]
]}

For every item below, please supply its Kd.
1. 43586p1.2.E2 (scFv, V domains shown) VH: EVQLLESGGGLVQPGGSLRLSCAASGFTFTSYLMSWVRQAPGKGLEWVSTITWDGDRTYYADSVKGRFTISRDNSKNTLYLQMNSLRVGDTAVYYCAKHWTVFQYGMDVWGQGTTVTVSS VL: QSVLTQPASASGTPGQRVTISCSGTISNIETKYVSWYQQLPGTAPKLLIYGNHQRPSGVPDRFSGSKSGTSASLAISGLQSEDEADYYCASWENDLKSWVFGGGTKLTVL
2. 43645p1.H10 (scFv, V domains shown) VH: EVQLLESGGGLVQAGGSLRLSCAASGFTFDDYVMTWVRQAPGKGLEWVSLINWSGDRTYYADSVKGRFTISRDNSKNTLYLQMNSLRAEDTAVYYCVKHNLNYYYGMDVWGQGTTVTVSS VL: QSVLTQPPSVSGTPGQRVTISCSGTISNVGNKYVSWYQQVPGTAPKLLIDYNQRPSGVPDRFSGSQSGTSASLTISGLQSEDEADYYCATWDDSLKGWVFGGGTKLTVL

Result:
1. 4.8
2. 0.181
